- TARGET_UNDER_TEST: mouse EP1 (Mus musculus)
- TEST_DESCRIPTION: Receptor antagonism using cells expressing EP1 in the presence of BSA (intracellular calcium)
- EXPERIMENTAL_PARAMETERS: inhibition of PGE2 (100 nM)-induced increase of intracellular calcium; assay buffer with 1% (w/v) BSA
READOUT: log10 IC50 (log10 of the value in nM)
Plainly stated, the numbers are log10 of IC50 given in nM.

So what's the measured log10 IC50 for this one? Cc1csc(S(=O)(=O)N(c2cc(C)c(Cl)cc2OCc2ccc(-c3nnn[nH]3)cc2C)C(C)C)n1 [Example 3 (11)] 0.69

So what's the measured log10 IC50 for this one? Cc1ccc(N(CC(C)C)S(=O)(=O)c2ccco2)c(OCc2ccc(C(=O)O)cc2)c1 [Example 18 (93), reference compound] 2.30

So what's the measured log10 IC50 for this one? Cc1ccc(S(=O)(=O)N(CC(C)C)c2cc(C)c(C)cc2OCc2ccc(C(=O)O)cc2)o1 [Example 2 (6)] 0.86

So what's the measured log10 IC50 for this one? CC(C)CN(c1ccc(Cl)cc1OCc1ccc(C(=O)O)cc1)S(=O)(=O)c1ccco1 [Example 18 (121), reference compound] 2.41

So what's the measured log10 IC50 for this one? Cc1cc(OCc2ccc(C(=O)O)cc2C)c(N(CC(C)C)S(=O)(=O)c2ccccn2)cc1C [Example 2 (87)] 0.86

So what's the measured log10 IC50 for this one? CC(C)CN(c1cc(Cl)ccc1OCc1ccc(C(=O)O)cc1)S(=O)(=O)c1ccco1 [Example 18 (125), reference compound] 3.13

So what's the measured log10 IC50 for this one? Cc1csc(S(=O)(=O)N(c2cc(C)c(C)cc2OCc2ccc(-c3noc(=O)[nH]3)cc2)C(C)C)n1 [Example 4 (14)] 0.85

* * *

What IC50 was measured for each of the following?
- TARGET_UNDER_TEST: mouse EP1 (Mus musculus, UniProt P35375)
- Sequence (P35375 1-405): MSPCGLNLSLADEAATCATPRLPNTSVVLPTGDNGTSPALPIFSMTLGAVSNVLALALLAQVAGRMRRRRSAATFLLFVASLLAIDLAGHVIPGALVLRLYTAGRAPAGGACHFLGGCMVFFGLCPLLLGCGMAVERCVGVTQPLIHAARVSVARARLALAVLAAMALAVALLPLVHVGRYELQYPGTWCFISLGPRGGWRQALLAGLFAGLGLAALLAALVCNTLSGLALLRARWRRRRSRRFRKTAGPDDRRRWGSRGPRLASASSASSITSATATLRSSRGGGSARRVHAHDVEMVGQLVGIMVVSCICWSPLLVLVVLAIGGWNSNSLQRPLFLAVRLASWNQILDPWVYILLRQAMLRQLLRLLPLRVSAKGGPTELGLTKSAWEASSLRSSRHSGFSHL
- TEST_DESCRIPTION: Receptor antagonism using cells expressing EP1 in the presence of BSA (intracellular calcium)
- EXPERIMENTAL_PARAMETERS: inhibition of PGE2 (100 nM)-induced increase of intracellular calcium; assay buffer with 1% (w/v) BSA
Give just the numeric value; nM need not be written.

So what's the measured IC50 for this one? "Cc1ccc(S(=O)(=O)N(CC(C)C)c2cc(C)c(C)cc2OCc2ccc(C(=O)O)cc2C)o1" 7.8

So what's the measured IC50 for this one? "Cc1cc(OCc2ccc(-c3nnn[nH]3)cc2Cl)c(N(C(C)C)S(=O)(=O)c2cccnc2)cc1C" 3.7

So what's the measured IC50 for this one? "Cc1csc(S(=O)(=O)N(CC(C)C)c2ccc(C(F)(F)F)cc2OCc2ccc(/C=C/C(=O)O)cc2)n1" 25

So what's the measured IC50 for this one? "Cc1ccc(S(=O)(=O)N(CC(C)C)c2cc3c(cc2OCc2ccc(C(=O)O)cc2C)CCC3)o1" 4.1

So what's the measured IC50 for this one? "Cc1cc(OCc2ccc(/C=C/C(=O)O)cc2C)c(N(CC(C)C)S(=O)(=O)c2cccnc2)cc1C" 9.2

So what's the measured IC50 for this one? "Cc1ccc(S(=O)(=O)N(CC(C)C)c2cc3c(cc2OCc2ccc(/C=C/C(=O)O)cc2)CCC3)o1" 21

So what's the measured IC50 for this one? Cc1ccc(OCc2ccc(C(=O)O)cc2)c(N(CC(C)C)S(=O)(=O)c2ccco2)c1 [Example 18 (113), reference compound] 470
